Tested on: MS2 coat protein
method description: apparent KD of MS2 coat protein, switch ON state; designed switch direction (-1 OFF switch, 1 ON switch): 1; higher = weaker reporter binding
settings: FMN input: 0 or 200 uM; Eterna round: R93 (includes R88 designs)
Assignment: determine reported apparent KD of MS2 coat protein for the given sequences.

Some sequences with recorded apparent KD of MS2 coat protein:
{"sequence data": "AAGAAACAUGAGGAUCACCCAUGUAAGAUAAACACAGGAUAUGCGAAAAUAAACAAAUAAGCAGAAGGGUGAAAAG [Mat - Same State 1 - Tesla mod - 76]", "system name": "MS2 coat protein", "assay endpoint": "apparent KD of MS2 coat protein", "reading": "15.2 nM"}
{"sequence data": "AAAUAAAUGACUAAGGAUAUAUCAAAAGAAACAUGAGGAUCACCCAUGUAAUAAUAAAAAGGGUGAUAGAAGGUAGUCAACAAAC [74%, More Paria 4]", "system name": "MS2 coat protein", "assay endpoint": "apparent KD of MS2 coat protein", "reading": "24.6 nM"}
{"sequence data": "AAAACACAUGAGGAUCACCCAUGUGAAAACAUGAGAGGAUAUGCAUGGAAAACAUGCUAUGCAGAAGGCUCAUGUG [SS1 - 8]", "system name": "MS2 coat protein", "assay endpoint": "apparent KD of MS2 coat protein", "reading": "16.5 nM"}
{"sequence data": "AUAAAACAUGAGGAUCACCCAUGUCCGACAAAUCAAGGAUAUGAGAGCCAAACCAGGCUGUUAGAAGGUGAAAGAA [Edorlebere]", "system name": "MS2 coat protein", "assay endpoint": "apparent KD of MS2 coat protein", "reading": "154 nM"}

For each of the sequences below, note its apparent KD of MS2 coat protein.
1. AAAAAACAUGAGGAUCACCCAUGUCAAAAGACGUGAGGAUAUGUACAGACUUCGGUCUGUACAGAAGGCAUGUAAA [SS1 - 1053]
2. UGAAGACAUGAGGAUCACCCAUGUGGGAAUAUGGGAGGAUAUACAAAGACGAGAGUCAGAGUAGAAGGCCUAGGAG [salish99-ss1-97]

# output
21.3 nM
55.1 nM
